experiment: Equilibrium (apparent) solubility of APR, shake flask method; format: physicochemical; details: blank SNEDDS preconcentrate, 37 °C, organic solvent or mixture, thermodynamic from solid, Imwitor 988:Kolliphor RH40:Transcutol P (%) 10:50:40, 37 °C; read-out: APR solubility (loading capacity of SNEDDS preconcentrate)
Measured Property: solubility at 24 h
Remember to put the unit after the number in your answer.

**Query** Item `C[C@@H](O[C@H]1OCCN(Cc2nc(=O)[nH][nH]2)[C@H]1c1ccc(F)cc1)c1cc(C(F)(F)F)cc(C(F)(F)F)c1` has what recorded solubility at 24 h?
**Result** 26.9 mg/mL

---

test: Equilibrium (apparent) solubility of APR, shake flask method; format: physicochemical; details: Lemon oil (oily excipient), 25 °C, oil or lipid, thermodynamic from solid, oily excipient Lemon oil, 25 °C; read-out: APR solubility
Measured Property: solubility at 24 h (µg/mL)
Record the value in µg/mL, omitting the unit from your answer.

**Query** Item `C[C@@H](O[C@H]1OCCN(Cc2nc(=O)[nH][nH]2)[C@H]1c1ccc(F)cc1)c1cc(C(F)(F)F)cc(C(F)(F)F)c1` has what recorded solubility at 24 h?
**Result** 3090

---

assay: Equilibrium (apparent) solubility of APR, shake flask method; format: physicochemical; settings: Peceol (oily excipient), 25 °C, oil or lipid, thermodynamic from solid, oily excipient Peceol, 25 °C; read-out: APR solubility
Measured Property: solubility at 24 h (µg/mL)
Record the value in µg/mL, omitting the unit from your answer.

**Query** Item `C[C@@H](O[C@H]1OCCN(Cc2nc(=O)[nH][nH]2)[C@H]1c1ccc(F)cc1)c1cc(C(F)(F)F)cc(C(F)(F)F)c1` has what recorded solubility at 24 h?
**Result** 7780

---

test: Equilibrium (apparent) solubility of APR, shake flask method; assay type: physicochemical; settings: Plurol Oleique CC 497 (cosurfactant), 25 °C, organic solvent or mixture, thermodynamic from solid, cosurfactant Plurol Oleique CC 497, 25 °C; read-out: APR solubility
Measured Property: solubility at 24 h (µg/mL)
Record the value in µg/mL, omitting the unit from your answer.

**Query** Item `C[C@@H](O[C@H]1OCCN(Cc2nc(=O)[nH][nH]2)[C@H]1c1ccc(F)cc1)c1cc(C(F)(F)F)cc(C(F)(F)F)c1` has what recorded solubility at 24 h?
**Result** 4140

---

experiment: Equilibrium (apparent) solubility of APR, shake flask method; assay type: physicochemical; conditions: Cinnamon oil (oily excipient), 25 °C, oil or lipid, thermodynamic from solid, oily excipient Cinnamon oil, 25 °C; read-out: APR solubility
Measured Property: solubility at 24 h (mg/mL)
Record the value in mg/mL, omitting the unit from your answer.

**Query** Item `C[C@@H](O[C@H]1OCCN(Cc2nc(=O)[nH][nH]2)[C@H]1c1ccc(F)cc1)c1cc(C(F)(F)F)cc(C(F)(F)F)c1` has what recorded solubility at 24 h?
**Result** 8.47

---

assay: Equilibrium (apparent) solubility of APR, shake flask method; format: physicochemical; settings: Kolliphor HS15 (surfactant), 25 °C, aqueous with cosolvent or surfactant or cyclodextrin, thermodynamic from solid, surfactant Kolliphor HS15, 25 °C; read-out: APR solubility
Measured Property: solubility at 24 h (µg/mL)
Record the value in µg/mL, omitting the unit from your answer.

**Query** Item `C[C@@H](O[C@H]1OCCN(Cc2nc(=O)[nH][nH]2)[C@H]1c1ccc(F)cc1)c1cc(C(F)(F)F)cc(C(F)(F)F)c1` has what recorded solubility at 24 h?
**Result** 7160

Numbers sourced from paper PMC8621193.
